Measured values drawn from patent US10787423B2 for this set.

Target: rVDAC1-GFP2 / rVDAC1-Rluc in T-REx-293 cells (Rattus norvegicus)
Construct: The rVDAC1 gene was cloned into BamHI and HindIII sites of the BRET2 plasmids (N2 variants); expressed in transfected cells; host or cells: T-REx-293 cells stably expressing hVDAC1-shRNA (T-REx-pS10)
Sequence (Q9Z2L0 with tags, fused parts or gaps limits assumed): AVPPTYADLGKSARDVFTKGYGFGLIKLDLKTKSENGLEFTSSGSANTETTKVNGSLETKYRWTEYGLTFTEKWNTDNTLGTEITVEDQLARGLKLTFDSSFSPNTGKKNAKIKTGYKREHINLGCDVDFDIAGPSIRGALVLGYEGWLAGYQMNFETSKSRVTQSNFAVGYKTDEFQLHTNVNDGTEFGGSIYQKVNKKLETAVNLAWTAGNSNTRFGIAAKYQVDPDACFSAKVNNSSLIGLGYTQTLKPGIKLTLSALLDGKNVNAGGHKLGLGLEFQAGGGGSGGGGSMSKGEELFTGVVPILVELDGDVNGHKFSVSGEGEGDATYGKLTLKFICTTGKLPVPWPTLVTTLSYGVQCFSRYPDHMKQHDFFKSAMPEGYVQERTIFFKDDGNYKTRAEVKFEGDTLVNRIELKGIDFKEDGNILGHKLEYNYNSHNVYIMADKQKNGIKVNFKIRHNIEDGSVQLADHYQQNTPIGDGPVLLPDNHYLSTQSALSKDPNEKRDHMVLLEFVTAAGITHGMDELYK
Experiment: BRET2 assay of VDAC1 oligomerization induced by apoptosis inducers (Method A)
Type: cell-based
Settings: test compound 10 μM, 1 h pre-incubation, As2O3 60 μM (3 h)
Quick rule for you: BRET2, % of inhibition, As2O3 at 80% or higher means Fulfilled, lower means Not fulfilled.

COMPOUND | ASSIGNED_CATEGORY
CCOc1ccc(/C=C2\CCc3ccccc3C2=O)cc1 | Fulfilled

Request: Please check the record CC#CC#Cc1cccc(=O)o1 and state if its BRET2, % of inhibition, As2O3 is at or above 80%.
Result: Not fulfilled

Request: Please check the record CC(C)COC(=O)NC1c2ccccc2Oc2ccccc21 and state if its BRET2, % of inhibition, As2O3 is at or above 80%.
Result: Not fulfilled

Request: Please check the record CC(C)NC(=O)c1ccc(C(C)C)cc1 and state if its BRET2, % of inhibition, As2O3 is at or above 80%.
Result: Fulfilled
